Data credit: patent US9421209B2

Molecule	melting point
C[C@@H](Nc1ncnc2[nH]cnc12)c1oc2ccccc2c(=O)c1-c1cccc(F)c1	274 to 276 °C
Nc1ncnc2c1c(-c1cn[nH]c1)nn2Cc1oc2ccc(F)cc2c(=O)c1-c1ccccc1	211 to 214 °C
COc1cccc(-c2nn(Cc3oc4ccccc4c(=O)c3-c3ccccc3)c3ncnc(N)c23)c1	111 to 115 °C
CCC(c1oc2ccccc2c(=O)c1-c1cccc(F)c1)n1nc(-c2ccc3c(C)n[nH]c3c2)c2c(N)ncnc21 (stereo not shown)	268 to 270 °C

---

biological target: P110 δ/Pi3K δ (Homo sapiens); experiment: Fluorescent (HTRF) determination of PI3K enzyme activity, δ isoform; assay type: biochemical
Sequence (O00329 whole entry, canonical isoform): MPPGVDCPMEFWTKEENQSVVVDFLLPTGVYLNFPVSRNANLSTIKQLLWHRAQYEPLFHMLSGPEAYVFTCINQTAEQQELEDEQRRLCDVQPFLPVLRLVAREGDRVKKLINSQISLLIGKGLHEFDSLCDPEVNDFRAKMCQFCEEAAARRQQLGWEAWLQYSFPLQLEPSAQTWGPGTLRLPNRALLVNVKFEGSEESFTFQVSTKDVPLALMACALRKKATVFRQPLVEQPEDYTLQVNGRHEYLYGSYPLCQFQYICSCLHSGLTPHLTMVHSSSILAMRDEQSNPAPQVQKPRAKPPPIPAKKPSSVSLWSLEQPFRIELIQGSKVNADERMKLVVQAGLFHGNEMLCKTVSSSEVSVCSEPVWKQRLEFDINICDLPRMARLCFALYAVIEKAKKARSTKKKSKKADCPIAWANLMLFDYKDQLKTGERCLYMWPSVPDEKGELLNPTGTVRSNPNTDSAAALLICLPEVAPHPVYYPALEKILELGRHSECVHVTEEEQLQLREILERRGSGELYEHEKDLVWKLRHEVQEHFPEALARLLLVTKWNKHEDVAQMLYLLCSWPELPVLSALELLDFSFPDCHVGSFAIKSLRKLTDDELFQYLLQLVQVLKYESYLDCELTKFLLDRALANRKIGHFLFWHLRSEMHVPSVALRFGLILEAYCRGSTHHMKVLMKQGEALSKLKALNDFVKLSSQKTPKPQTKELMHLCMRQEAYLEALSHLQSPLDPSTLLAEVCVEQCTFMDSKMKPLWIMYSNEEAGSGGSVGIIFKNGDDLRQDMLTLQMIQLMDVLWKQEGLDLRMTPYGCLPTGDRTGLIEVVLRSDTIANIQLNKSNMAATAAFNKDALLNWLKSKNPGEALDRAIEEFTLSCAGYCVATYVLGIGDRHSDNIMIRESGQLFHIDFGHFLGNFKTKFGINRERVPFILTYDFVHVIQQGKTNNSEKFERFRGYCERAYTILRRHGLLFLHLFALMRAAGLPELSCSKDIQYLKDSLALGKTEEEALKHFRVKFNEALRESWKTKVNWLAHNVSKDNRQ
Sequence (P27986 whole entry partner, canonical isoform): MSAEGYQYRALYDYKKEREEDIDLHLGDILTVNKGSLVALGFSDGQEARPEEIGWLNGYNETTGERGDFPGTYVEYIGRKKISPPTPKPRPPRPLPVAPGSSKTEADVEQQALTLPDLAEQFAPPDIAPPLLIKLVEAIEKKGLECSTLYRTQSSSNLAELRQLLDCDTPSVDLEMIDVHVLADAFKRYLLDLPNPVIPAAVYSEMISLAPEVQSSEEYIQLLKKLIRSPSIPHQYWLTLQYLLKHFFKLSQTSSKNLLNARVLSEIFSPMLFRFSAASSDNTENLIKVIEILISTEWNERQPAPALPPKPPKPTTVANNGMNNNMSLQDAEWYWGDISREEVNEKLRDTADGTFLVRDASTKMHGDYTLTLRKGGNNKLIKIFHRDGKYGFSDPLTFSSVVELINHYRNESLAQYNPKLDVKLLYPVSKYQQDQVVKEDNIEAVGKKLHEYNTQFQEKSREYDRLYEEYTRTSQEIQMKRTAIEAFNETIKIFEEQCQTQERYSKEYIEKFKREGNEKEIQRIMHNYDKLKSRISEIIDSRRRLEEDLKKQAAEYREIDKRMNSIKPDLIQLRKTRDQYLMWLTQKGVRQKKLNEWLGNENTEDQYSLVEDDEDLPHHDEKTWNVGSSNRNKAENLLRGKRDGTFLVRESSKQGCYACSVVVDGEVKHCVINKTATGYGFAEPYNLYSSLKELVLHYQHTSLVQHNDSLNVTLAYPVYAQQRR
Item-by-item account of inhibition at 1 µM

Molecule	inhibition at 1 µM
Nc1ncnc2c1c(-c1cccc(O)c1)nn2Cc1oc2ccccc2c(=O)c1-c1ccccc1	50 to 100%
Cc1cccc2c1ncn2Cc1oc2ccc(Br)cc2c(=O)c1-c1ccccc1	< 50%
CC(c1oc2ccccc2c(=O)c1-c1ccccc1)n1ncc2c(N)ncnc21 (stereo not shown)	< 50%
Nc1ncnc2c1c(CCCO)nn2Cc1oc2ccccc2c(=O)c1-c1ccccc1	< 50%
O=c1c(-c2ccccc2)c(Cn2ccnc2)oc2ccccc12	< 50%
Nc1ncnc2c1ncn2Cc1oc2ccccc2c(=O)c1-c1ccccc1	< 50%
CC(c1oc2ccccc2c(=O)c1-c1ccccc1F)n1cnc2c(N)ncnc21 (stereo not shown)	50 to 100%
Nc1ncnc2c1c(-c1cn[nH]c1)nn2Cc1oc2ccccc2c(=O)c1-c1ccccc1	50 to 100%
O=c1c(-c2ccccc2)c(CSc2ncnc3[nH]cnc23)oc2ccc(Br)cc12	< 50%
CCC(c1oc2ccc(F)cc2c(=O)c1-c1ccccc1)n1cnc2c(N)ncnc21 (stereo not shown)	< 50%
C[C@@H](Nc1ncnc2[nH]cnc12)c1oc2ccccc2c(=O)c1-c1cccc(F)c1	< 50%
CCC(c1oc2ccccc2c(=O)c1-c1ccccc1F)n1cnc2c(N)ncnc21 (stereo not shown)	< 50%
Cn1c(=O)c2c(ncn2Cc2oc3ccc(Br)cc3c(=O)c2-c2ccccc2)n(C)c1=O	< 50%
CC(c1oc2ccccc2c(=O)c1-c1cc(F)cc(F)c1)n1cnc2c(N)ncnc21 (stereo not shown)	< 50%
O=c1c(-c2ccccc2F)c(CNc2ncnc3[nH]cnc23)oc2ccccc12	< 50%
CC(c1oc2ccc(F)cc2c(=O)c1-c1ccccc1F)n1cnc2c(N)ncnc21 (stereo not shown)	< 50%
O=c1c(-c2ccccc2)c(Cn2cnc3ccccc32)oc2ccccc12	< 50%
Nc1ncnc2c1ncn2Cc1oc2ccccc2c(=O)c1-c1ccccc1F	< 50%
CCC(c1oc2ccccc2c(=O)c1-c1ccc(F)cc1)n1cnc2c(N)ncnc21 (stereo not shown)	< 50%
Nc1ncnc2c1c(-c1cccc(F)c1)nn2Cc1oc2ccccc2c(=O)c1-c1ccccc1	< 50%
Nc1ncnc2c1ncn2Cc1oc2ccc(Br)cc2c(=O)c1-c1ccc(F)cc1	< 50%
COc1cccc(-c2nn(Cc3oc4ccccc4c(=O)c3-c3ccccc3)c3ncnc(N)c23)c1	< 50%
CC(Sc1ncnc2[nH]cnc12)c1oc2ccc(Br)cc2c(=O)c1-c1ccccc1 (stereo not shown)	< 50%
Nc1ncnc2c1c(-c1cccc(CO)c1)nn2Cc1oc2ccccc2c(=O)c1-c1ccccc1	< 50%
O=c1c(-c2ccccc2)c(CNc2ncnc3[nH]cnc23)oc2ccc(Br)cc12	< 50%
CC(c1oc2ccccc2c(=O)c1-c1cccc(F)c1)n1nc(-c2cn[nH]c2)c2c(N)ncnc21 (stereo not shown)	50 to 100%
CC(c1oc2ccccc2c(=O)c1-c1cccc(F)c1)n1nc(-c2cccc(O)c2)c2c(N)ncnc21 (stereo not shown) [Example 51a]	50 to 100%
CC(c1oc2ccc(Br)cc2c(=O)c1-c1ccccc1F)n1cnc2c(N)ncnc21 (stereo not shown)	< 50%
